# systemName: Sodium-dependent noradrenaline transporter (Homo sapiens, UniProt P23975)
# Sequence (P23975 whole entry): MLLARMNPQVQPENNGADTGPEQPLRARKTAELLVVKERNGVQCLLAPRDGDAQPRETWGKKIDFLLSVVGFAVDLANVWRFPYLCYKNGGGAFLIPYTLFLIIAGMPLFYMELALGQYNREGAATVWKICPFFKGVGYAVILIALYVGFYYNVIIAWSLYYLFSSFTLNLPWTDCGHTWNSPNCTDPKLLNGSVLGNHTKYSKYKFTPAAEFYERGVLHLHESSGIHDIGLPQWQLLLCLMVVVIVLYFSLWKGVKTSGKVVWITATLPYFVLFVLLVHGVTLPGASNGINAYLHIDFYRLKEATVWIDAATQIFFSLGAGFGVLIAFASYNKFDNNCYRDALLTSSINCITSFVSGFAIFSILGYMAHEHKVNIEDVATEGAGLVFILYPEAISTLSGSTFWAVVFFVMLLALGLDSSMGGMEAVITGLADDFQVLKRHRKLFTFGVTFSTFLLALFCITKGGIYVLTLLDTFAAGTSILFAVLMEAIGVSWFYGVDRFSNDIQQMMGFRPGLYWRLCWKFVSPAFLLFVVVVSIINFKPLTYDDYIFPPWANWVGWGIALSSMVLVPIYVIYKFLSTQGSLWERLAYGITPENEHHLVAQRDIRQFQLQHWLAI
# assayInfo: DRUGMATRIX: Norepinephrine Transporter radioligand binding (ligand: [125I] RTI-55)
# Type: cell membranes, MDCK, Membrane
# details: Not Active = under 50% inhibition at 10 µM; read-out: IC50
Measured pIC50 values are reported for all entries that follow.
Scale for pIC50: -log10 of concentration given in mol/L; no unit attached.

Check out these entries, answers already filled in.
molecule="O=C(/C=C/c1ccc(O)c(O)c1)OCCc1ccccc1 [CAFFEIC ACID PHENETHYL ESTER]" systemname="Sodium-dependent noradrenaline transporter (Homo sapiens, UniProt P23975)" readoutkind=pIC50 reportedvalue=5.42
molecule="CC(CCc1ccc(O)cc1)NCCc1ccc(O)c(O)c1 (configuration not stated) [DOBUTAMINE]" systemname="Sodium-dependent noradrenaline transporter (Homo sapiens, UniProt P23975)" readoutkind=pIC50 reportedvalue=6.42
molecule="COc1ccc2cc(CCC(C)=O)ccc2c1 [NABUMETONE]" systemname="Sodium-dependent noradrenaline transporter (Homo sapiens, UniProt P23975)" readoutkind=pIC50 reportedvalue=5.73
molecule=CC[C@]1(O)CC[C@H]2[C@@H]3CCC4=CCCC[C@@H]4[C@H]3CC[C@@]21C systemname="Sodium-dependent noradrenaline transporter (Homo sapiens, UniProt P23975)" readoutkind=pIC50 reportedvalue=5.68
molecule="OCCN1CCN(CCCN2c3ccccc3Sc3ccc(C(F)(F)F)cc32)CC1 [FLUPHENAZINE]" systemname="Sodium-dependent noradrenaline transporter (Homo sapiens, UniProt P23975)" readoutkind=pIC50 reportedvalue=5.71
molecule=COc1cc(N)nc2[nH]c(-c3ccc(F)cc3)c(-c3ccncc3)c12 systemname="Sodium-dependent noradrenaline transporter (Homo sapiens, UniProt P23975)" readoutkind=pIC50 reportedvalue=5.97

Data point: CC[C@H](C)C(=O)O[C@H]1C[C@@H](C)C=C2C=C[C@H](C)[C@H](CC[C@@H]3C[C@@H](O)CC(=O)O3)[C@H]21 [LOVASTATIN] ; pIC50 = 5.06

====

# assayInfo: DRUGMATRIX: Glutamate, NMDA, Phencyclidine radioligand binding (ligand: [3H] TCP)
# Format: cell membranes, Rattus norvegicus, Wistar, Cerebral cortex, Membrane
# details: Not Active = under 50% inhibition at 10 µM
readoutKind: Ki

compound=C#C[C@]1(O)CC[C@H]2[C@@H]3CCC4=Cc5oncc5C[C@]4(C)[C@H]3CC[C@@]21C readoutkind=Ki reportedvalue="Not Active"
compound="Cc1cnc(C(=O)NCCc2ccc(S(=O)(=O)NC(=O)NC3CCCCC3)cc2)cn1 [GLIPIZIDE]" readoutkind=Ki reportedvalue="Not Active"
compound="CN(Cc1cnc2nc(N)nc(N)c2n1)c1ccc(C(=O)N[C@@H](CCC(=O)O)C(=O)O)cc1 [METHOTREXATE]" readoutkind=Ki reportedvalue="Not Active"
compound=NC[C@@H]1O[C@H](O[C@H]2[C@@H](O)[C@H](O[C@@H]3[C@@H](O)[C@H](N)C[C@H](N)[C@H]3O[C@H]3O[C@H](CN)[C@@H](O)[C@H](O)[C@H]3N)O[C@@H]2CO)[C@H](N)[C@@H](O)[C@@H]1O readoutkind=Ki reportedvalue="Not Active"
compound=CC(C)(Sc1cc(C(C)(C)C)c(O)c(C(C)(C)C)c1)Sc1cc(C(C)(C)C)c(O)c(C(C)(C)C)c1 readoutkind=Ki reportedvalue="Not Active"

Now, please, on to the next compound.
Looking up `CC[C@H](C)C(=O)O[C@H]1C[C@H](O)C=C2C=C[C@H](C)[C@H](CC[C@@H](O)C[C@@H](O)CC(=O)O)[C@H]21` , I found its Ki recorded as Not Active
